Values from PubChem BioAssay (NCI)

- Tested on: RXF 393 renal
- assay-text: NCI tumour cell line growth inhibition, 48 h; in the data active = GI50 below about 0.43 µM; inactive = the rest
Outcomes: t (active), f (inactive)

# compound, qualitative-label
measured = [
    ("OCC1OC(n2cnc3c(NCc4ccccc4O)ncnc32)C(O)C1O (configuration not stated)", "f"),
    ("CCC(C(=O)[C@@H](C)[C@@H](O)[C@H](C)[C@@H]1O[C@@H]([C@@H](CC)C(=O)ONC(=O)c2ccccc2)CC[C@@H]1C)[C@H]1O[C@]2(C=CC(=O)[C@]3(CC[C@@](C)([C@H]4CC[C@](O)(CC)[C@H](C)O4)O3)O2)[C@H](C)C[C@@H]1C (some centres not stated)", "t"),
    ("CC1(C)CC[C@]2(CO)CC[C@]3(C)C(=CC[C@@H]4[C@@]5(C)CCNCC(C)(C)[C@@H]5CC[C@]43C)[C@@H]2C1", "f"),
    ("C(=C\\c1ccc(OCC2CO2)cc1)/C1=NCOC1 (configuration not stated)", "f"),
    ("CC(=N\\O)/C(C)=N/O.CC(=N\\O)/C(C)=N/O.[Fe].[NH2-].c1c[nH]cn1", "f"),
    ("Cc1ccc(NC2=CC(=O)C(=O)c3ccccc32)cc1", "f"),
    ("CCCCC[C@H]1C/C=C2/C(=O)C(Cl)=C[C@@H]2C/C=C\\CCCC(=O)O1", "f"),
]

* * *

- System: SNB-75 CNS
- assay-text: NCI tumour cell line growth inhibition, 48 h
measured-metric: log10(TGI) (log10 of the value in µM)

# compound, measurement
data = [
    ("COc1ccc(-c2nnc(Nc3nc(O)c(C4=c5cc(Br)ccc5=NC4=O)s3)o2)cc1", 1.88),
    ("CCOC(=O)c1cc(C(=O)c2cc(OC)c(OC)c(OC)c2)n2ccc(-c3cc[n+](CC(=O)c4cc(OC)c(OC)c(OC)c4)cc3)cc12", 0.53),
    ("C=C1C(=O)O[C@H]2[C@H]1CC/C(COC(=O)N[C@H](Cc1c[nH]c3ccccc13)C(=O)OC)=C\\CC[C@@]1(C)O[C@@H]21", 1.35),
    ("NC(=O)NC(=O)c1cccc(NC(=O)CCl)c1", 0.85),
    ("C1=C\\CCCCN2CC[C@H]3[C@H](CCCC/C=C\\CCCN4C[C@@H](CCCCC/1)C[C@@H]3C4)C2", 1.28),
    ("CCOP(=O)(OCC)C(NC(c1ccccc1)c1ccccc1)c1ccc(C(C)C)cc1 (stereo not given)", 1.41),
    ("COc1nc2c(c(=O)[nH]1)N=C(c1ccc(Cl)cc1)CC(c1ccccc1)N2 (stereo not given)", 1.74),
    ("N/C(=N/S(=O)(=O)c1cc(C(=O)Nc2ccc(F)cc2)c(Cl)cc1SCc1ccccc1)Nc1ccccc1O", 0.58),
    ("COc1cc(/C=C/c2ccnc3ccccc23)cc(OC)c1OC", 0.73),
    ("CC1OC(CC2C=CCc3c(O)c4c(c(O)c32)C(=O)c2ccccc2C4=O)CC(NC(=O)C(F)(F)F)C1O (stereo not given)", 0.76),
    ("O=C(COc1cccc(/C=C2\\Oc3ccc4ccccc4c3C2=O)c1)c1ccc([N+](=O)[O-])cc1", 1.72),
]

* * *

- Test system: DU-145 prostate
- assay-text: NCI tumour cell line growth inhibition, 48 h; in the data active = GI50 below about 0.43 µM; inactive = the rest
Classes used: active, inactive

# compound, qualitative-label
measured = [
    ("O=c1[nH]c2ccccc2n1C1CCN(CCOc2ccccc2)CC1", "inactive"),
    ("Cc1ccc(C2C3Cc4ccccc4C3=NN2c2ccc(S(=O)(=O)NC(=O)Nc3ccccc3)cc2)cc1 (stereo not given)", "inactive"),
    ("CCOC(=O)c1cc2c(n1Cc1cc(OC)cc(OC)c1)-c1oncc1CC2", "active"),
    ("CCOC(=O)c1cc(C(=O)c2cc(OC)c(OC)c(OC)c2)n2ccc(-c3cc[n+](CC(=O)c4cc(OC)c(OC)c(OC)c4)cc3)cc12", "inactive"),
    ("NCCCNc1nc2ccccc2c2c(=O)c3cc(F)cc(Cl)c3sc12", "inactive"),
]

* * *

- Test system: U251 CNS
- assay-text: NCI tumour cell line growth inhibition, 48 h
In this section, each of the compounds is paired with its reported TGI.

# compound, TGI
measured = [
    ("O=C(NC(CCCCN1C(=O)c2ccccc2C1=O)P(=O)(Oc1ccccc1)Oc1ccccc1)OCc1ccccc1 (centres undefined)", "> 100 µM"),
    ("CCOC(=O)c1csc(-c2cn(C)c3c2C(=O)C(OC)=CC3=O)n1", "> 100 µM"),
    ("CCOC(=O)c1ccc(N(CCOS(=O)(=O)c2ccc(C)cc2)CCOS(=O)(=O)c2ccc(C)cc2)cc1", "46.6 µM"),
    ("Oc1cccc2ccc(Br)nc12", "> 100 µM"),
    ("CC(=N\\O)/C(C)=N/O.CC(=N\\O)/C(C)=N/O.[Fe].[NH2-].c1c[nH]cn1", "> 100 µM"),
    ("C/C=C1/C(=Cc2[nH]c(C=c3[nH]/c(=C/C4=NC(=O)C(CC)=C4C)c(C)c3CCC(=O)O)c(CCC(=O)O)c2C)NC(=O)C1C (centres undefined)", "> 50 µM"),
    ("CC(=O)N1N=C(c2ccc3ccccc3c2O)CC1c1ccc(N(C)C)cc1 (centres undefined)", "> 100 µM"),
    ("COc1ccc(-c2nnc(Nc3nc(O)c(C4=c5cc(Br)ccc5=NC4=O)s3)o2)cc1", "30.7 µM"),
    ("CC[P+]1(c2ccccc2)CCCCC1", "> 100 µM"),
    ("CCOC(=O)c1ccn2c(c1)c(C#N)c1nc3ccccc3nc12", "> 100 µM"),
    ("CC1(C)CCC[C@@]2(C)C1CC[C@@]1(CO1)[C@@H]2/C=C\\C(C=O)CC=O (some centres undefined)", "> 100 µM"),
    ("O=C(CCl)Nc1ccc(Cc2ccc(NC(=O)CCl)cc2)cc1", "2.98 µM"),
    ("O=C(O)CCSC(=O)Nc1ccccc1", "> 100 µM"),
    ("CC(=O)c1ccc(Oc2c3ccccc3nc3occc23)cc1", "> 100 µM"),
]

* * *

- Tested on: K-562 leukemia
- assay-text: NCI tumour cell line growth inhibition, 48 h
Item-by-item account of TGI

# compound, TGI
records = [
    ("Oc1cccc2ccc(Br)nc12", "> 100 µM"),
    ("O=C(CCN1CCCC1)c1ccc(Oc2ccc(F)cc2)cc1", "> 100 µM"),
    ("O=c1[nH]c2ccccc2n1C1CCN(CCOc2ccccc2)CC1", "> 100 µM"),
    ("C=C1C(C(=O)O)C1C(=O)O (stereo not given)", "> 100 µM"),
    ("N#CCC(=O)Nc1ccccc1O", "> 100 µM"),
    ("Cn1cc(-c2nc(-c3cn(C)c4ncccc34)cs2)c2ccccc21", "> 100 µM"),
    ("Cc1ccc(/C(=C/C=C(C#N)C#N)Sc2nc3ccccc3s2)cc1", "> 100 µM"),
    ("COc1ccc(-c2nnc(Nc3nc(O)c(C4=c5cc(Br)ccc5=NC4=O)s3)o2)cc1", "75.2 µM"),
    ("Nc1cc(N)c2nc(-c3ccccc3)c(NCc3ccc(Cl)c(Cl)c3)nc2c1", "17.8 µM"),
    ("CCC(=C(c1ccc(OCCN2CCCC2)cc1)c1ccc(OCCN2CCCC2)cc1)c1ccc(Cl)cc1", "0.751 µM"),
    ("CC(=O)OC(C)c1cc2c(s1)C(=O)c1ccsc1C2=O (stereo not given)", "0.473 µM"),
    ("CCCCCC(/C=C/c1ncccc1OCCCCCC(=O)O)=N\\NC1=NCCN1", "> 100 µM"),
    ("COc1ccc(NC(=O)c2cccc(C3CCc4c(cc(OC)c(OC)c4OC)O3)c2)cc1 (stereo not given)", "> 100 µM"),
    ("Cc1ccc(O)c(C2=NNC(c3cccc(Cl)c3)C2)c1 (stereo not given)", "> 100 µM"),
    ("CCCCCCCCCCCCCCCCCCOCC(O)CO (stereo not given)", "> 25 µM"),
]

* * *

- Test system: MALME-3M melanoma
- assay-text: NCI tumour cell line growth inhibition, 48 h
The following molecules are shown together with reported GI50 values.

# molecule, GI50
data = [
    ("CC(=N\\O)/C(C)=N/O.CC(=N\\O)/C(C)=N/O.[Fe].[NH2-].c1c[nH]cn1", "> 100 µM"),
    ("O=c1[nH]c2ccccc2n1C1CCN(CCOc2ccccc2)CC1", "51.5 µM"),
    ("COc1cc(NCCC2CCCCN2)c2ncccc2c1OC (centres undefined)", "14.2 µM"),
    ("C=CCN1C(=O)[C@]2(SC1=S)[C@H](c1cccc(Cl)c1)CN(C)[C@]21C(=O)NC2C=CC(Cl)=C[C@H]21 (some centres undefined)", "2.88 µM"),
]
